Molecular target: Caspase-7 (Homo sapiens, UniProt P55210)
Sequence (P55210 whole entry): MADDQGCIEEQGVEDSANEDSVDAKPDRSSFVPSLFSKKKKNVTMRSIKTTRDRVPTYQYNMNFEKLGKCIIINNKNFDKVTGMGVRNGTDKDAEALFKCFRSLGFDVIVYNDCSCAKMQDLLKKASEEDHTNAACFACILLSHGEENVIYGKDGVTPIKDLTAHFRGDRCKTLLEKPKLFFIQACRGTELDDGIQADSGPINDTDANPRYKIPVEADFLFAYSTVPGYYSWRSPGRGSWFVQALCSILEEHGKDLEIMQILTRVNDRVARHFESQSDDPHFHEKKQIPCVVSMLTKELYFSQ
Experiment: Inhibitory concentration against recombinant human caspase-7 […]
pIC50: −log10 of the molar value.
Quantity name: pIC50

Notebook: CCC(C(=O)N[C@@H](CC(=O)O)C(=O)c1ncc(-c2ccccc2)o1)n1ccnc(NCc2nonc2C)c1=O (stereo partly drawn) , pIC50 read as 6.12

Notebook: CCCCCCN(C)CC(=O)C(CC(=O)O)NC(=O)C(CC)n1cc(C(C)(C)C)nc(NCc2nonc2C)c1=O (stereo not drawn) , pIC50 read as 7.89

Notebook: CCCCCCN(C)CNCC(=O)[C@H](CC(=O)O)NC(=O)C(CC)n1cc(CC)nc(NCc2nonc2C)c1=O (stereo partly drawn) , pIC50 read as 6.22

Notebook: CCC(C(=O)N[C@H](C=O)CC(=O)O)n1ccnc(NCc2nonc2C)c1=O (stereo partly drawn) , pIC50 read as 6.00

Notebook: CCC(C(=O)N[C@@H](CC(=O)O)C(=O)CSCc1ccccc1)n1ccnc(NCc2nonc2C)c1=O (stereo partly drawn) , pIC50 read as 6.14

(A) CCC(C(=O)N[C@@H](CC(=O)O)C(=O)CSCc1ccccc1)n1ccnc(NCc2nc(C)no2)c1=O (stereo partly drawn)
(B) CCCN(C)CNCC(=O)[C@H](CC(=O)O)NC(=O)C(CC)n1ccnc(NCc2nonc2C)c1=O (stereo partly drawn)
Q. Returns: the argument ( A or B ) having the larger pIC50. Bench note: the answer is the label of the chosen record.
A. B
